Assay: Plasma clearance in rat
Assay type: ADME, organism-based
Parameter measured: clearance (mL/min/kg)
Reply with just the number (in mL/min/kg).

CC(C)(C)c1nc2nc(-c3ccccc3Cl)c(-c3ccc(C#N)cc3)cc2c2n[nH]c(=O)n12 = 4

// next entry
## Input What does the record list as clearance for CC(C)(C)c1nc2nc(-c3ccccc3Cl)c(-c3ccc(Cl)cc3)cc2c2n[nH]c(=O)n12 ?
## Output 12

---

Reported pIC50 values follow for various compounds
Target: Cannabinoid receptor 2 (Homo sapiens)
Sequence (P34972 whole entry): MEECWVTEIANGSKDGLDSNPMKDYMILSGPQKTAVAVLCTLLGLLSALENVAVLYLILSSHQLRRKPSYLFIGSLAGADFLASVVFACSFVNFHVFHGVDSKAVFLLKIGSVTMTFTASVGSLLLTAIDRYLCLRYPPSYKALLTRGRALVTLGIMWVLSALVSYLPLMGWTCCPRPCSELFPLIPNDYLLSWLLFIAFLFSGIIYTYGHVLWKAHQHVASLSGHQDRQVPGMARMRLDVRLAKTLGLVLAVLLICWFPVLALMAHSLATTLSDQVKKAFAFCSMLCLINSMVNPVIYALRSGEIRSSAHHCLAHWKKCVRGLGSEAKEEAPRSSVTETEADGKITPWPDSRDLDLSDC
Assay: Binding affinity to human cannabinoid CB2R expressed in CHO cells
Scale for pIC50: -log10 of concentration given in mol/L; no unit attached.

Field: example entries. Status: answers known.
CC(C)(C)c1nc2nc(-c3ccccc3Cl)c(-c3cnccc3C#N)cc2c2n[nH]c(=O)n12 = 4.74
CCN(CC)C(=O)c1nc(NC(C)C)c2cc(-c3ccc(Cl)cc3)c(-c3ccccc3Cl)nc2n1 = 4.92
CCN(CC)c1nc(C(C)(C)C)nc2nc(-c3ccccc3Cl)c(-c3ccc(Cl)cc3)cc12 = 5.57

## Input What does the record list as pIC50 for CN(C)c1nc(C(C)(C)C)nc2nc(-c3ccccc3Cl)c(-c3ccc(Cl)cc3)cc12 ?
## Output 5.74

## Input What do you have for CC(C)(C)c1nc2nc(-c3ccc(Cl)cc3Cl)c(-c3ccc(Cl)cc3)cc2c(=O)[nH]1 ?
## Output 5.26

## Input What do you have for CC(C)(C)c1nc(N)c2cc(-c3ccc(Cl)cc3)c(-c3ccccc3Cl)nc2n1 ?
## Output 5.31

## Input What do you have for CC(C)c1nc(OCc2ncon2)c2cc(-c3ccc(Cl)cc3)c(-c3ccccc3Cl)nc2n1 ?
## Output 5.20

## Input What do you have for Cc1nc(N)c2cc(-c3ccc(Cl)cc3)c(-c3ccccc3Cl)nc2n1 ?
## Output 5.96

## Input What do you have for CC(C)c1nc2nc(-c3ccccc3Cl)c(-c3ccc(Cl)cc3)cc2c(=O)n1Cc1ncon1 ?
## Output 5.01

## Input What do you have for CC(C)(C)c1nc(N2CCNCC2)c2cc(-c3ccc(Cl)cc3)c(-c3ccccc3Cl)nc2n1 ?
## Output 5.74

## Input What do you have for CC(C)(C)c1nc2nc(-c3ccccc3Cl)c(-c3ccc(C#N)cc3)cc2c2n[nH]c(=O)n12 ?
## Output 4.74

## Input What do you have for CC(C)(C)c1nc2nc(-c3ccccc3Cl)c(-c3ccc(Cl)cc3)cc2c2n[nH]c(=O)n12 ?
## Output 5.42

## Input What do you have for CC(=O)c1ccc(-c2cc3c(nc2-c2ccccc2Cl)nc(C(C)(C)C)n2c(=O)[nH]nc32)cc1 ?
## Output 5.24
